tested on: SF-539; assay: NCI tumour cell line growth inhibition, 48 h
Activity calls are given as the source filed them. Rule as the data show it: active = GI50 up to about 1.1 µM and inactive = higher.
Outcomes: 1 for active, 0 for inactive

| compound | qualitative_label |
| --- | --- |
| Cc1nn(C(=O)c2ccc(Cl)cc2)c2c1C(c1ccc(Cl)cc1)SC(=N)N2 (centres undefined) | 0 |
| CC1OC(OC2C(CO)OC(O[C@H]3CC[C@@]4(C)C(=CC[C@H]5[C@@H]6C[C@@H]7O[C@](O)(CC[C@@H](C)COC8OC(CO)C(O)C(O)C8O)[C@@H](C)[C@@H]7[C@@]6(C)CC[C@@H]54)C3)C(OC3OC(C)C(O)C(O)C3O)C2O)C(O)C(O)C1O (some centres undefined) | 0 |
| CCOC(=O)C1=C(Nc2ccc(Cl)c(Cl)c2)OC/C1=N\NC(=O)Cc1ccccc1 | 0 |
| Cc1nc(Cl)c(Cl)c(Cl)n1 | 0 |
| NNC(=O)CNc1cccc(Br)c1 | 0 |
| O=P1(O)C=CC2(CCCC2)O1 | 0 |
| CCCCCC(O)(CCCCC)CCCCCCCCC1=C(O)C(=O)c2ccccc2C1=O | 0 |
| COc1ccc2c(c1)/C(=C\c1c(-c3ccccc3)nc3n1CCS3)C(=O)N2 | 0 |
| COC(=O)C1CCC(=O)N1C(c1ccc(OC)cc1)c1cc(OC)c(OC)c(OC)c1 (centres undefined) | 1 |
